Tested on: Schistosoma mansoni schistosomula (NMRI);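 further: visual microscopic scoring of shape, motility and density changes versus 0.5% DMSO solvent controls, one point per descriptor, degeneracy or death scored 4, mean of duplicate wells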
assay-summary: phenotypic severity score (0-4); higher = more antischistosomal effect, active = 2 or more
condition: 72 h; 10 µM
test-readout: phenotypic severity score

compound=CCc1ccc([C@@H]2C[C@H](C(F)(F)F)n3ncc(C(=O)NCc4ccc(OC)cc4)c3N2)cc1 reported_measurement=0
compound=CC(C)(CN)c1nc(-c2ccc(Cl)c(O)c2)c(-c2ccnc(N)n2)[nH]1 reported_measurement=0
compound=c1ccc(Oc2ccc(-c3cc(C4CCOCC4)[nH]n3)cc2)cc1 reported_measurement=0
compound="CCC(NC(=O)c1ccccc1NC(=O)c1ccc(C)cc1)C(=O)OC (centres undefined)" reported_measurement=1
compound=COc1cc(NC(=O)Cc2nn(C)c(=O)c3ccccc23)ccc1Cl reported_measurement=0
compound=O=C(c1cc2ccccc2o1)N1CCN(Cc2ccc3c(c2)OCO3)CC1 reported_measurement=0
compound=Cc1ccc(S(=O)(=O)n2cc(-c3ccnc(N)c3)c3cc(Br)cnc32)cc1 reported_measurement=3
compound=CC[P](CC)(CC)=[Au][S][C@H]1O[C@@H](COC(C)=O)[C@H](OC(C)=O)[C@@H](OC(C)=O)[C@@H]1OC(C)=O reported_measurement=4
compound=CCOC(=O)c1noc(N)c1-c1ccccc1 reported_measurement=0
compound="O=C(Nc1nc(-c2ccccn2)cs1)C1CC1c1ccccc1F (centres undefined)" reported_measurement=0
compound=Nc1ncnc2[nH]nc(Cc3cccc4ccccc34)c12 reported_measurement=3
compound=CC[C@@H]([C@H](C)O)n1ncn(-c2ccc(N3CCN(c4ccc(OC[C@@H]5CO[C@@](Cn6cncn6)(c6ccc(F)cc6F)C5)cc4)CC3)cc2)c1=O reported_measurement=4
compound=CN(C(=O)c1cc2c(-c3cncnc3)cccc2[nH]1)c1ccccc1 reported_measurement=0
compound=O=C(NCc1nnc2n1CCCCC2)c1ccc(-c2ccc(F)cc2)o1 reported_measurement=0
compound=COc1ccc(-c2cc(NC(=O)c3ccc(F)cc3Cl)ccc2OC)cc1 reported_measurement=0
compound=COc1ccc(C2=NN(C3CCCCCC3)C(=O)[C@@H]3CC=CC[C@H]23)cc1OCCCCOc1ccc(-c2nn[nH]n2)cc1 reported_measurement=0
compound=O=C(N[C@H](Cc1ccccc1)C(=O)Nc1ccccc1N1CCOCC1)c1cccs1 reported_measurement=0
compound=Cc1cc(C(=O)Nc2cnn(Cc3ccc(Cl)cc3Cl)c2)no1 reported_measurement=0
compound=Cc1ccc2[nH]c3c(NCCN(C)C)ncnc3c2c1 reported_measurement=1
compound=O=C(OCc1ccccc1)N1CCC(c2cc(-c3ccncc3)c(-c3ccc(F)cc3)[nH]2)CC1 reported_measurement=0
compound=COc1ccccc1OCCCCn1c(C2CC2)nc2ccccc21 reported_measurement=0
compound=CN1CCC(c2cc(-c3ccncc3)c(-c3ccc(F)cc3)[nH]2)CC1 reported_measurement=0
compound=Cc1cccc(NC(=O)c2cc(S(=O)(=O)N(C)c3ccc(F)cc3)ccc2Cl)n1 reported_measurement=0
compound=CC(=O)N1CCN(c2ccc(Oc3ccc(Cl)cc3O)cc2)CC1 reported_measurement=0
compound=Oc1c(I)cc(I)c2cccnc12 reported_measurement=2
compound=O=[N+]([O-])c1cn2c(n1)OC[C@@H](OCc1ccc(OC(F)(F)F)cc1)C2 reported_measurement=0
compound="NCCCC(N)(C(=O)O)C(F)F (centres undefined)" reported_measurement=0
compound=O=C(NC1=NCCS1)c1sc2cc(F)ccc2c1Cl reported_measurement=0
compound=Nc1nccc2ccc(Oc3ccncc3)cc12 reported_measurement=0
compound=COC(=O)Nc1nc2cc(C(=O)c3ccccc3)ccc2[nH]1 reported_measurement=0
compound="CC1COC2(CCN(c3nc(=O)c4cc(C(F)(F)F)cc([N+](=O)[O-])c4s3)CC2)O1 (centres undefined)" reported_measurement=0
compound=CC(C)(C)C(=O)N(CCCCCCN1C[C@H](O)[C@@H](O)[C@H](O)[C@H]1CO)C1CCCCCC1 reported_measurement=4
compound=O=C(Nc1ccc(N2CCNCC2)nc1)c1oc(-c2ccccc2)nc1C(F)(F)F reported_measurement=0
compound=c1ccc(-c2nc(NC3CCCCC3)cc(C3CC3)n2)nc1 reported_measurement=0
